# Test system: A673/TR/shEF
# Method summary: cell viability (LOESS-normalised, relative to median of negative controls) (log2 ratio); higher = more viable cells (less compound effect), active = hit call of the paper (over 3 MAD below the median)
# Measurement conditions: 2.5 µM; library screen: screen1; EWS-FLI1 expression: high (no doxycycline); treatment time: 72 h
The campaign covered roughly 3,200 compounds. About 300 (9.4%) showed activity. This excerpt belongs to a sample that is enriched for actives.
Quantity measured: cell viability (log2)

CC(C)CCCCCOC(=O)COc1ccc(Cl)cc1Cl; 0.111 (inactive)
Cc1ccc(C(=O)NCCSc2ccccn2)cc1; 0.117 (inactive)
CC(=O)O[C@H]1CC[C@@]2(C)C(=CC[C@H]3[C@@H]4CC[C@H]([C@H](C)CCCC(C)C)[C@@]4(C)CC[C@@H]32)C1; 0.14 (inactive)
CC(C)N1C(=O)/C(=C\c2ccco2)SC1=S; 0.114 (inactive)
COCc1cc(C)nc(SCC(=O)NC(C)(C)C)c1C#N; 0.0645 (inactive)

Problem: Name the reported cell viability (log2) value associated with the compound CC1Cc2ccccc2N1C(=S)Nc1ccc2nccnc2c1 (configuration not stated)
Solution: 0.133 (inactive)

Problem: And then `Cc1cc(Nc2ccc(O)cc2)n2c(nc3ccccc32)c1C#N` , what is it?
Solution: 0.0987 (inactive)

* * *

# System: A673/TR/shEF
# Method summary: cell viability (LOESS-normalised, relative to median of negative controls) (log2 ratio); higher = more viable cells (less compound effect), active = hit call of the paper (over 3 MAD below the median)
# Measurement conditions: 0.25 µM; library screen: screen1; EWS-FLI1 expression: high (no doxycycline); treatment time: 72 h
The campaign covered roughly 3,200 compounds. About 300 (9.4%) showed activity. This excerpt belongs to a sample that is enriched for actives.
Recorded cell viability (log2) by entry
Please respond with just the number, no unit label.

COc1cc(Cc2cnc(N)nc2N)cc(OC)c1OC; 0.149
CCC(=O)c1ccc2c(c1)N(CC(C)N(C)C)c1ccccc1S2 (stereo unspecified); 0.0889
CC1(C)OC(=O)C=C[C@@]2(C)C1C[C@@H](O)[C@]1(C)C2CC[C@@]2(C)[C@H](c3ccoc3)OC(=O)C3OC321 (stereo partly specified); 0.0796
CC(=O)N1CCN(c2nc(-c3ccccc3)c3cc(Br)ccc3n2)CC1; 0.0769
CC(C)[C@@H](C)C=C[C@@H](C)[C@H]1CC[C@H]2C3=CCC4CC(=O)CC[C@]4(C)[C@H]3CC[C@]12C (stereo partly specified); 0.0656

Problem: Look up cell viability (log2): `O=C1CC[C@]23/C=C/C(=O)NCCCCNCCCNC(=O)/C=C/c4ccc(c2c4)O[C@@H]3C1`
Solution: 0.0958

* * *

As shown below, each of these molecules has a reported cell viability (log2) value.
# Test system: A673/TR/shEF
# Method summary: cell viability (LOESS-normalised, relative to median of negative controls) (log2 ratio); higher = more viable cells (less compound effect), active = hit call of the paper (over 3 MAD below the median)
# Measurement conditions: 25 µM; library screen: screen2; EWS-FLI1 expression: high (no doxycycline); treatment time: 72 h
The whole screen tested about 3,200 compounds, of which about 300 (9.4%) showed activity. The sample as a whole holds a higher share of actives than the screen did.
Format: numeric value only, no unit, no commentary.

Worked examples, 4 molecules total:
[Cl][Pt+2][Cl].[NH2-].[NH2-]; 0.079
Nc1ncn([C@@H]2O[C@H](CO)[C@@H](O)[C@H]2O)c(=O)n1; -0.117
CN(Cc1cnc2nc(N)nc(N)c2n1)c1ccc(C(=O)N[C@@H](CCC(=O)O)C(=O)O)cc1; -0.743
C[C@H]1O[C@@H](n2cc(F)c(=O)[nH]c2=O)[C@H](O)[C@@H]1O; -2.97

--- query ---
Problem: Return reported cell viability (log2); argument: `Cc1cn([C@H]2C[C@H](N=[N+]=[N-])[C@@H](CO)O2)c(=O)[nH]c1=O`
Solution: 0.0992

* * *

# Test system: A673/TR/shEF
# Method summary: cell viability (LOESS-normalised, relative to median of negative controls) (log2 ratio); higher = more viable cells (less compound effect), active = hit call of the paper (over 3 MAD below the median)
# Measurement conditions: 25 µM; library screen: screen2; EWS-FLI1 expression: low (doxycycline-induced shRNA knockdown); treatment time: 72 h
Screen size: about 3,200 compounds; about 300 (9.4%) showed activity. The list comes from a sample in which actives are over-represented; it also holds close analogues and randomly drawn compounds.
Quantity measured: cell viability (log2)
Just the number, please, no unit attached.

Worked examples, 2 molecules total:
[Cl][Pt+2][Cl].[NH2-].[NH2-]; 0.0718
CCN(CC)CCCC(C)Nc1ccnc2cc(Cl)ccc12 (stereo not drawn); 0.0987

Continue with the next molecule.
Problem: Recall the recorded cell viability (log2) for COc1cc(NC(C)CCCN)c2ncccc2c1 (stereo not drawn) with A673/TR/shEF and state it.
Solution: -0.0311

* * *

# Test system: A673/TR/shEF
# Method summary: cell viability (LOESS-normalised, relative to median of negative controls) (log2 ratio); higher = more viable cells (less compound effect), active = hit call of the paper (over 3 MAD below the median)
# Measurement conditions: 25 µM; library screen: screen1; EWS-FLI1 expression: high (no doxycycline); treatment time: 72 h
Screen size: about 3,200 compounds; about 300 (9.4%) showed activity. The list comes from a sample in which actives are over-represented; it also holds close analogues and randomly drawn compounds.
// one of t for active, f for inactive, no free text

Observe how each entry below is paired with its result.
O=P(O)(O)C(O)c1ccc2ccccc2c1 (centres undefined); f
Oc1cc(O)cc(/C=C/c2ccc(O)c(O)c2)c1; t
COc1cc(/C=C(\C#N)C(N)=O)cc(CSc2nc3ccccc3s2)c1O; f
O=C(O)c1cc(N(Cc2ccccc2O)Cc2cc(O)ccc2O)ccc1O; f
C=CC(=O)c1ccc2ccccc2c1; t
Cc1cc2ncc(-c3ccccc3)nc2cc1C; t
O=C1Nc2ccc(I)cc2/C1=C/c1cc(Br)c(O)c(Br)c1; f
CC(C)C[C@H](NC(=O)[C@H](CCC(=O)O)NC(=O)CNC(=O)c1ccc(/C=C/C(=O)O)cc1)C(N)=O; f

Problem: # lookup: test call for `COc1ccc(S(=O)(=O)N(CCO)c2ccccc2CN(C)C/C=C/c2ccc(Cl)cc2)cc1`
Solution: t

Problem: Moving on to `N#CC(=C(N)Sc1ccccc1N)C(C#N)=C(N)Sc1ccccc1N`
Solution: t

Problem: Next record, please: `CCCCCCCCCCCCC/C=C/[C@@H](O)[C@@H](N)CO`
Solution: t

Problem: Try `COC(=O)/C=C/c1cc(O)ccc1O` next.
Solution: t

Problem: Try O=[N+]([O-])c1ccc(Oc2ccc(Br)cc2)c(C(O)[P+](=O)O)c1 (centres undefined) next.
Solution: t

Problem: Also need `CN(C)c1ccc(/C=C2\C(=O)Nc3ccccc32)cc1` , thanks.
Solution: t

* * *

# System: A673/TR/shEF
# Method summary: cell viability (LOESS-normalised, relative to median of negative controls) (log2 ratio); higher = more viable cells (less compound effect), active = hit call of the paper (over 3 MAD below the median)
# Measurement conditions: 25 µM; library screen: screen2; EWS-FLI1 expression: low (doxycycline-induced shRNA knockdown); treatment time: 72 h
Among all 3,200 compounds or so, about 300 (9.4%) showed activity. The sample as a whole holds a higher share of actives than the screen did.
Flag rule - cell viability (log2) less than 0.03 flags class 1; the remaining entries get class 0.

These recorded examples may help you get a feel for the data.
CN(Cc1cnc2nc(N)nc(N)c2n1)c1ccc(C(=O)N[C@@H](CCC(=O)O)C(=O)O)cc1; class 0
COc1c(C)c2c(c(O)c1C/C=C(\C)CCC(=O)O)C(=O)OC2; class 1

Problem: For the compound `CCc1cn([C@H]2C[C@H](O)[C@@H](CO)O2)c(=O)[nH]c1=O` , is cell viability (log2) under 0.03?
Solution: class 0

* * *

# Tested on: A673/TR/shEF
# Method summary: cell viability (LOESS-normalised, relative to median of negative controls) (log2 ratio); higher = more viable cells (less compound effect), active = hit call of the paper (over 3 MAD below the median)
# Measurement conditions: 8.3 µM; library screen: screen3; EWS-FLI1 expression: high (no doxycycline); treatment time: 72 h
Screen size: about 3,200 compounds; about 300 (9.4%) showed activity. Many of the other results were omitted from the sample, so actives are more common in it than they were.
Each entry below carries its reported cell viability (log2).
Reply briefly: the number, and no unit.

COCCn1c2c([n+](Cc3cnccn3)c1C)C(=O)c1ccccc1C2=O; -4.31
CN1/C(=C(\O)Nc2ccccn2)C(=O)c2ccccc2S1(=O)=O; 0.146
C/C(=C\C(=O)Nc1ccccc1C(=O)O)c1ccc2ccccc2c1; -0.0171
CC(C)n1c(/C=C/C(O)CC(O)CC(=O)O)c(-c2ccc(F)cc2)c2ccccc21 (stereo not given); -0.668
Cn1cnc2c(F)c(Nc3ccc(Br)cc3Cl)c(C(=O)NOCCO)cc21; -0.293
O=C(O)C[C@H](O)C[C@H](O)/C=C/c1c(C2CC2)nc2ccccc2c1-c1ccc(F)cc1; -2.09

Problem: Endpoint output: cell viability (log2) of `CCCCC1C(=O)N(c2ccccc2)N(c2ccccc2)C1=O` . Value?
Solution: 0.169

Problem: Do the same for `Nc1ncnc2c1ncn2[C@@H]1O[C@H](CO)[C@@H](O)[C@@H]1O` please
Solution: 0.0774

Problem: Note, next up: `Cc1cn([C@H]2C=C[C@@H](CO)O2)c(=O)[nH]c1=O`
Solution: 0.102

Problem: What do you have for `Cc1ccc(NC(=O)c2ccc(CN3CCN(C)CC3)cc2)cc1Nc1nc(-c2cccnc2)cs1` ?
Solution: 0.061
